Where do the numbers come from? From patent US6623933B1.

system: UniProt:P35439
protocol_description: NMDA-induced currents, Xenopus oocytes injected with NR1100 cRNA only, Example 1
Where a name gives a salt, the structure may show the parent alone.
Readings of EC50 for the listed compounds
Field: numeric (µM). Do not append units.

[
  {
    "compound": "CC(=O)[C@H]1CC[C@H]2[C@@H]3CC[C@@H]4C[C@H](OS(=O)(=O)O)CC[C@]4(C)[C@H]3CC[C@]12C [3α5βS, 3α5β-pregnanolone sulfate]",
    "measurement_kind": "EC50",
    "unit_descriptor": "µM",
    "reported_value": 57
  }
]

Attention now shifts to the item below.
Task: In one line, give reported EC50 of the entry CC(=O)[C@H]1CC[C@H]2[C@@H]3CC[C@@H]4C[C@@H](OS(=O)(=O)O)CC[C@]4(C)[C@H]3CC[C@]12C [3β5βS, epipregnanolone sulfate] .
Output: 144

====

system: NR1011/NR2A (Rattus norvegicus, UniProt P35439+Q00959)
protocol_description: NMDA-induced currents of NR1 splice variants, Xenopus oocytes, Example 4
Assay type: cell-based
Design: expressed in transfected cells; host or cells: Xenopus oocytes injected with NR1011 and NR2A mRNA
measurement_context: read-out: NMDA EC50; NR1011/2A; pH 8.5; +100 μM PS
measurement_kind: pEC50
In plain terms, pEC50 is the concentration in mol/L turned into minus its base-10 logarithm.

Task: Read off the recorded pEC50 for CN[C@H](CC(=O)O)C(=O)O [NMDA, N-methyl-D-aspartate]
Output: 4.24

====

system: NR1/NR2A (NR1100) (Rattus norvegicus, UniProt P35439+Q00959)
Sequence (Q00959 23-1464, other chains not shown): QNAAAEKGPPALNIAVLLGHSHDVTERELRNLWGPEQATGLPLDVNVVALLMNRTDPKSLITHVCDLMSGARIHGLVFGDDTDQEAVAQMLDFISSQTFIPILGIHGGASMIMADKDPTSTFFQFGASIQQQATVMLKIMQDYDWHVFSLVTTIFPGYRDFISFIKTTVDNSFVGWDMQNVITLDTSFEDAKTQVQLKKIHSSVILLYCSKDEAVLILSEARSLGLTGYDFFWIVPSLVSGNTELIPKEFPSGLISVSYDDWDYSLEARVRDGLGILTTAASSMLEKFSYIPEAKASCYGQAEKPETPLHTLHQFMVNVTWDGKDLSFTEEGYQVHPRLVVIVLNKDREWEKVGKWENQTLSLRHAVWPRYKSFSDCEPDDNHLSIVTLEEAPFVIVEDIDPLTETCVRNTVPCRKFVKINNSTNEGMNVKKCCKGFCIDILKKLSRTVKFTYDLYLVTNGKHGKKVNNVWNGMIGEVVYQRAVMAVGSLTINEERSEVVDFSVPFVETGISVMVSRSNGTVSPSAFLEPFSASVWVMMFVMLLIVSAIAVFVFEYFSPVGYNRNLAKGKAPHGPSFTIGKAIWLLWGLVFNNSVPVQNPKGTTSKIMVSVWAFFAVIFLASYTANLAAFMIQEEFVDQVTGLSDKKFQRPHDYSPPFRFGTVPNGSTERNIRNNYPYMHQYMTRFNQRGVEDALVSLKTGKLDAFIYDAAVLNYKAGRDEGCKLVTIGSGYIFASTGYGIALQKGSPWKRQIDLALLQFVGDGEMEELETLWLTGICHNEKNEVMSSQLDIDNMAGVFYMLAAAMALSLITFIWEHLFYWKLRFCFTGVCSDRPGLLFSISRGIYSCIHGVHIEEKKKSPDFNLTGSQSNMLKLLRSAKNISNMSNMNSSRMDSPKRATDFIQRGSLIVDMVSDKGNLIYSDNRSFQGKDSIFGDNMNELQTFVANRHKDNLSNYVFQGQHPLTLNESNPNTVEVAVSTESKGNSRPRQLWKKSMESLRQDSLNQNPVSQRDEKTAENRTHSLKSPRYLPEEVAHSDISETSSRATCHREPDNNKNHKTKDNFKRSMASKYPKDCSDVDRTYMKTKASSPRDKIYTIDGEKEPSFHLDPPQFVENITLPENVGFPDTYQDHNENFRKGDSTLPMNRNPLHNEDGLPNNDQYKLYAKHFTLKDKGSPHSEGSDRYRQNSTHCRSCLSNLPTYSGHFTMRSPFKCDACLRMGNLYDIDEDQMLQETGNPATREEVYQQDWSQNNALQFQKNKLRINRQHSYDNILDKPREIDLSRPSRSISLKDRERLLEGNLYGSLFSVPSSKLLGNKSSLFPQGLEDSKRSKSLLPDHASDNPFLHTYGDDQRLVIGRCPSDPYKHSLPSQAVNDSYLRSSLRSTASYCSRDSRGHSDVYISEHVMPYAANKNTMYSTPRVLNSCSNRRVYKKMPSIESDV
measurement_context: read-out: agonist EC50, +100 μM PS
measurement_kind: pEC50
As a rule, pEC50 stands for the negative log10 of the concentration, concentration in M.

Task: Return pEC50 for the following compound: CN[C@H](CC(=O)O)C(=O)O [NMDA, N-methyl-D-aspartate]
Output: 4.41

====

system: NR1/NR2A (NR1100) (Rattus norvegicus, UniProt P35439+Q00959)
measurement_context: read-out: agonist EC50, no PS
measurement_kind: pEC50
Keep in mind that pEC50 stands for -log10 of concentration in molar terms.

Task: Note pEC50 for the molecule shown: CN[C@H](CC(=O)O)C(=O)O [NMDA, N-methyl-D-aspartate]
Output: 4.14

====

system: NR1100+NR2A NMDA receptor (Rattus norvegicus, UniProt P35439+Q00959)
Construct: expressed in transfected cells; host or cells: Xenopus oocytes co-injected with NR1100 and NR2A cRNA
Sequence (Q00959 23-1464, other chains not shown): as above
protocol_description: NMDA-induced currents, Xenopus oocytes, Example 1
Format: cell-based
measurement_context: read-out: NMDA EC50; NR1100+NR2A; +100 μM PS
measurement_kind: pEC50
On this scale, pEC50 is minus log10 of a concentration expressed in M (mol/L).

Task: Please supply the value of reported pEC50 for the item CN[C@H](CC(=O)O)C(=O)O [NMDA, N-methyl-D-aspartate]
Output: 4.52

====

System: primary cultures of rat hippocampal neurons
protocol_description: NMDA-induced increase in [Ca2+]i, Fluo-3 AM
Type: cell-based
measurement_context: 5 μM NMDA; steroid 100 μM (3α5β 50 μM)
Where a name gives a salt, the structure may show the parent alone.
measurement_kind: reduction of NMDA-induced rise in [Ca2+]i

[
  {
    "molecule": "CC(=O)[C@H]1CC[C@H]2[C@@H]3CC[C@@H]4C[C@H](OC(=O)C(=O)O)CC[C@]4(C)[C@H]3CC[C@]12C [3α5βHO, pregnanolone hemioxylate]",
    "reported_value": "approximately 40%"
  },
  {
    "molecule": "CC(=O)[C@H]1CC[C@H]2[C@@H]3CC[C@@H]4C[C@H](OC(=O)CCCC(=O)O)CC[C@]4(C)[C@H]3CC[C@]12C [3α5βHG, pregnanolone hemiglutarate]",
    "reported_value": "approximately 40%"
  },
  {
    "molecule": "CC(=O)[C@H]1CC[C@H]2[C@@H]3CC[C@@H]4C[C@H](OS(=O)(=O)O)CC[C@]4(C)[C@H]3CC[C@]12C [3α5βS, 3α5β-pregnanolone sulfate]",
    "reported_value": "32±5%"
  }
]
